These data points were gathered from patent EP3827825A1.

# Test system: S. suis
# ASSAY_NOTES: Minimal inhibitory concentration (MIC), double-dilution in broth, OD600
# Format: cell-based, Streptococcus suis
# CONDITION_PARAMETERS: unit assumed
EXPERIMENTAL_ENDPOINT: MIC S. suis (µg/mL)
Report the figure in µg/mL without appending any unit label.

- COMPOUND: "Oc1cc(OCc2ccc(Br)cc2)ccc1-c1n[nH]c(C(F)(F)F)c1-c1ccc(Cl)cc1 [Sep-13]"
  MIC S. suis / µg/mL: 6.25
- COMPOUND: "COc1ccc(-c2c(C(F)(F)F)n[nH]c2-c2ccc(O)cc2O)cc1OC"
  MIC S. suis / µg/mL: 50

Ask | Field request: MIC S. suis | item: `CCCCCOc1ccc(-c2n[nH]c(C(F)(F)F)c2-c2ccccc2Cl)c(O)c1`
Reply | 12.5

Ask | Look up MIC S. suis for this compound: `CCOc1ccc(-c2n[nH]c(C(F)(F)F)c2-c2ccccc2OC)c(O)c1`
Reply | 6.25

Ask | Give the measured MIC S. suis of `CCOc1ccc(-c2[nH]nc(C(F)(F)F)c2-c2ccc(OC)c(OC)c2)c(O)c1` .
Reply | 12.5

---

# Tested on: S. suis
# ASSAY_NOTES: Minimal inhibitory concentration (MIC), double-dilution in broth, OD600
# Assay type: cell-based, Streptococcus suis
# CONDITION_PARAMETERS: unit assumed
EXPERIMENTAL_ENDPOINT: MIC S. suis (µg/mL)
Hi! Could you send only the number? It should be in µg/mL, unit omitted.

Example cases with answers are listed next.
- MOLECULE: "Oc1cc(OCc2ccccc2)ccc1-c1[nH]nc(C(F)(F)F)c1-c1ccccc1"
  UNIT_ABBREVIATION: "µg/mL"
  RESULT: 3.13
- MOLECULE: "CCOc1ccc(-c2n[nH]c(C(F)(F)F)c2-c2ccc(OC)cc2)c(O)c1"
  UNIT_ABBREVIATION: "µg/mL"
  RESULT: 6.25
- MOLECULE: "NNC(=O)COc1ccc(-c2n[nH]c(C(F)(F)F)c2-c2ccc(Br)cc2)c(O)c1"
  UNIT_ABBREVIATION: "µg/mL"
  RESULT: 6.25

Ask | Please give the measured MIC S. suis for this molecule: `COc1ccccc1-c1c(C(F)(F)F)n[nH]c1-c1ccc(OCc2ccc(C)cc2)cc1O`
Reply | 25

Ask | Need MIC S. suis of `Cc1noc(-c2ccc(O)cc2O)c1-c1ccc(Br)cc1` , thanks.
Reply | 50

---

# Tested on: NRK-52E
# ASSAY_NOTES: Cell toxicity, Alamar blue assay, 24 hours exposure
# Assay type: cell-based
# CONDITION_PARAMETERS: 50 mg/mL stock
EXPERIMENTAL_ENDPOINT: IC50 NRK-52E (50 mg/mL stock)
Respond using a number only.

Solved entries (count: 2):
- COMPOUND: "Oc1cc(OCc2ccc(Br)cc2)ccc1-c1n[nH]c(C(F)(F)F)c1-c1ccc(Cl)cc1 [May-18]"
  RESULT: 4.568
- COMPOUND: "Oc1ccc(-c2n[nH]c(C(F)(F)F)c2-c2ccc(Br)cc2)c(O)c1 [Sep-20]"
  RESULT: 7.58

# next compound below
Ask | // lookup IC50 NRK-52E (50 mg/mL stock) for Oc1cc(OCc2ccc(Br)cc2)ccc1-c1n[nH]c(C(F)(F)F)c1-c1ccc(Cl)cc1 [Sep-13]
Reply | 10.89

---

# Tested on: S. suis
# ASSAY_NOTES: Minimal inhibitory concentration (MIC), double-dilution in broth, OD600
# Type: cell-based, Streptococcus suis
# CONDITION_PARAMETERS: unit assumed
# Experimental: In short, a stock solution of 5 mg/mL of HKIs in DMSO was made. This stock was diluted to 50 µg/mL in broth in a 96 well plate. Dilutions were made (factor 2) directly in the plate with a multi-channel pipet. Bacteria cultured in suspension overnight were then added to the plate (except negative control) and the plate was incubated for 24 hours. After 24 hours the OD600 was measured using a spectrophotometer. A positive control (with bacteria, without HKI) was also measured on each plate. […]
MIC S. suis values, listed per item
Entry rule: numbers only, all in µg/mL.

Some solved cases for reference:
- COMPOUND: "COc1ccc(-c2[nH]nc(C(F)(F)F)c2-c2ccc(Br)cc2)c(O)c1 [May-23]"
  TESTED_TARGET: "S. suis"
  MIC S. suis, µg/mL: 6.25
- COMPOUND: "O=[N+]([O-])c1ccc(COc2ccc(-c3n[nH]c(C(F)(F)F)c3-c3ccc(Br)cc3)c(O)c2)cc1 [May-11]"
  TESTED_TARGET: "S. suis"
  MIC S. suis, µg/mL: 3.13
- COMPOUND: "COc1ccc(-c2c(-c3ccc(O)cc3O)n[nH]c2C(F)(F)F)cc1 [May-9]"
  TESTED_TARGET: "S. suis"
  MIC S. suis, µg/mL: 12.5
- COMPOUND: "CCOc1ccc(-c2n[nH]c(C(F)(F)F)c2-c2ccccc2)c(O)c1C [Sep-3]"
  TESTED_TARGET: "S. suis"
  MIC S. suis, µg/mL: 25

Ask | Query MIC S. suis on S. suis for COc1ccc(-c2c(C(F)(F)F)n[nH]c2-c2ccc(OCc3ccc([N+](=O)[O-])cc3)cc2O)cc1 [Sep-6]
Reply | 12.5

Ask | Hi! What's the reported MIC S. suis for C=C(C)COc1ccc(-c2[nH]nc(C(F)(F)F)c2-c2ccccc2)c(O)c1 [Sep-9] on S. suis?
Reply | 25

---

# System: S. suis
# ASSAY_NOTES: Minimal inhibitory concentration (MIC), double-dilution in broth, OD600
# Assay type: cell-based, Streptococcus suis
# CONDITION_PARAMETERS: unit assumed
Recorded MIC S. suis values for a group of compounds are listed next.
Value expressed in µg/mL; do not type the unit.

- COMPOUND: "O=[N+]([O-])c1ccc(COc2ccc(-c3[nH]nc(C(F)(F)F)c3-c3ccc(Cl)cc3)c(O)c2)cc1"
  MIC S. suis, µg/mL: 12.5
- COMPOUND: "Oc1ccc(-c2n[nH]c(C(F)(F)F)c2-c2ccc(Br)cc2)c(O)c1 [AND-1]"
  MIC S. suis, µg/mL: 12.5
- COMPOUND: "C=C(C)COc1ccc(-c2[nH]nc(C(F)(F)F)c2-c2ccc(OC)cc2)c(O)c1"
  MIC S. suis, µg/mL: 12.5
- COMPOUND: "COc1ccccc1-c1c(C(F)(F)F)n[nH]c1-c1ccc(OCc2ccccc2)cc1O"
  MIC S. suis, µg/mL: 25
- COMPOUND: "COc1ccc(-c2n[nH]c(C(F)(F)F)c2-c2ccccc2)c(O)c1"
  MIC S. suis, µg/mL: 25

Ask | # query: MIC S. suis of entry `CCOc1ccc(-c2n[nH]c(C(F)(F)F)c2-c2ccccc2)c(O)c1`
Reply | 6.25

Ask | Please look up its MIC S. suis: `Oc1cc(OCc2ccccc2Cl)ccc1-c1n[nH]c(C(F)(F)F)c1-c1ccc(Cl)cc1`
Reply | 12.5

Ask | So what does the record say about MIC S. suis for `COc1ccc(-c2[nH]nc(C)c2-c2ccc(Br)cc2)c(O)c1` ?
Reply | 6.25

Ask | Consider the compound `O=[N+]([O-])c1ccc(COc2ccc(-c3[nH]nc(C(F)(F)F)c3-c3ccccc3)c(O)c2)cc1` and give its measured MIC S. suis.
Reply | 12.5

Ask | For the compound `COc1ccccc1-c1c(-c2ccc(O)cc2O)n[nH]c1C(F)(F)F` , what MIC S. suis is on record?
Reply | 25

Ask | Can you look up the measured MIC S. suis of `COc1ccc(-c2c(C(F)(F)F)n[nH]c2-c2ccc(OCc3ccccc3F)cc2O)cc1` for me?
Reply | 12.5

Ask | // query MIC S. suis value for entry `C=C(C)COc1ccc(-c2[nH]nc(C(F)(F)F)c2-c2ccc(Cl)cc2)c(O)c1`
Reply | 12.5

Ask | Name the recorded MIC S. suis for `COc1ccc(-c2n[nH]c(C(F)(F)F)c2-c2ccc(Cl)cc2)c(O)c1` .
Reply | 3.13

Ask | Query (compound): Oc1cc(OCc2ccc(Br)cc2)ccc1-c1n[nH]c(C(F)(F)F)c1-c1ccc(Cl)cc1 [May-18] ; field requested: MIC S. suis
Reply | 3.13

Ask | Item `CCOc1cc(O)c(-c2n[nH]c(C(F)(F)F)c2-c2ccccc2)cc1CC` has what recorded MIC S. suis?
Reply | 25

---

MIC S. suis overview
# Test system: S. suis
# ASSAY_NOTES: Minimal inhibitory concentration (MIC), double-dilution in broth, OD600
# Assay type: cell-based, Streptococcus suis
# CONDITION_PARAMETERS: unit assumed

Field: example entries. Status: answers known.
- MOLECULE: "COc1ccc(-c2n[nH]c(C(F)(F)F)c2-c2ccccc2OC)c(O)c1"
  MIC S. suis: "25 µg/mL"
- MOLECULE: "CCOc1ccc(-c2[nH]nc(C(F)(F)F)c2-c2ccc(Cl)cc2)c(O)c1"
  MIC S. suis: "3.13 µg/mL"
- MOLECULE: "COc1ccc(-c2c(-c3ccc(OCC(=O)NN)cc3O)n[nH]c2C(F)(F)F)cc1"
  MIC S. suis: "25 µg/mL"
- MOLECULE: "COc1ccc(-c2c(-c3ccc(OCc4ccc(C)cc4)cc3O)n[nH]c2C(F)(F)F)cc1OC"
  MIC S. suis: "50 µg/mL"
- MOLECULE: "Oc1cc(OCc2c(F)cccc2Cl)ccc1-c1[nH]nc(C(F)(F)F)c1-c1ccc(Cl)cc1"
  MIC S. suis: "12.5 µg/mL"
- MOLECULE: "Cc1[nH]nc(-c2ccc(O)cc2O)c1-c1ccc(Br)cc1"
  MIC S. suis: "6.25 µg/mL"
- MOLECULE: "COc1ccc(-c2c(C(F)(F)F)n[nH]c2-c2ccc(OCc3ccccc3)cc2O)cc1"
  MIC S. suis: "3.13 µg/mL"
- MOLECULE: "Oc1ccc(-c2n[nH]c(C(F)(F)F)c2-c2ccc(Br)cc2)c(O)c1 [Sep-20]"
  MIC S. suis: "25 µg/mL"

# ---- query molecule ----
Ask | Need MIC S. suis, item `COc1ccc(-c2n[nH]cc2-c2ccc(Cl)cc2)c(O)c1`
Reply | > 50 µg/mL
